target: recombinant human MGL protein (Homo sapiens); construct: a mixture of forward and reverse primers spanning the entire coding region; made in house; host or cells: E. coli BL21; experiment: Fluorescence assay of MGL inhibition with 7-HCA as substrate; assay type: biochemical; conditions: 3 ng MGL, 10 μM 7-HCA, pH 8, 25° C., 60 minutes
readoutKind: IC50 (µM)

(I) O=C(Nc1cccc(-c2ccccc2)c1)OC1CCCCC1
(II) CCCCC/C=C\C/C=C\C/C=C\C/C=C\CCCCN1C(=O)C=CC1=O [N-Arachidonyl Maleimide (NAM), N-Arachidonyl Maleimide]
Prompt: Lab note: check whether I or II shows the higher recorded IC50. Lab note: record the label of whichever item you select.
Response: I
(I: 3.6 µM, II: 0.155 µM)

----------
Target: recombinant human MGL protein (Homo sapiens, UniProt Q99685)
Construct: a mixture of forward and reverse primers spanning the entire coding region; made in house; host or cells: E. coli BL21
Sequence (Q99685 whole entry): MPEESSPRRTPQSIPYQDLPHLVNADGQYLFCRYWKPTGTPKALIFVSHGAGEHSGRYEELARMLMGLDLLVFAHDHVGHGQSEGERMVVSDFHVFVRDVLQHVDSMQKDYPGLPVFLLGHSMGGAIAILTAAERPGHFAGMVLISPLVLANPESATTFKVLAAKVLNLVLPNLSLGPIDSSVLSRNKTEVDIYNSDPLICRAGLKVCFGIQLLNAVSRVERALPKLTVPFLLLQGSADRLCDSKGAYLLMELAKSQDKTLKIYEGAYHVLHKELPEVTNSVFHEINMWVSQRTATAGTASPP
Assay: Fluorescence assay of MGL inhibition with 7-HCA as substrate
Assay type: biochemical
Details: 3 ng MGL, 10 μM 7-HCA, pH 8, 25° C., 60 minutes; listed as URB-602
Method: For measuring MGL inhibition by compounds, 3 ng protein per assay were incubated with indicated concentrations of the compound in the presence of 10 mM 7-HCA for 60 minutes. The reactions were stopped and processed as described above. Results are presented as the mean±S.E. of triplicate measurements from at least two independent experiments. The IC50 values were calculated by […]™ Prism 3.02 program using a sigmoidal dose-response equation. […]
readoutKind: pIC50
Value format note: pIC50 is -log10 of concentration (mol/L); just state the number.

Prompt: Given O=C(Nc1cccc(-c2ccccc2)c1)OC1CCCCC1 , state its recorded pIC50.
Response: 5.51
